- Tested on: SETVI
- ASSAY_PROCEDURE: Preemergence herbicidal evaluation
- Format: in vivo
- Set-up: scale not given here
- ASSAY_CONDITIONS: 0.0620-0.0630 kg/ha
Reported herbicidal effect rating by item:
ASSAY_ENDPOINT: herbicidal effect rating

test_smiles=CN(C)C(=O)c1nsc2ccc(-n3c(=O)cc(C(F)(F)F)n(C)c3=O)cc12 assay_endpoint="herbicidal effect rating" readout_value=9.0
test_smiles=Cc1nsc2ccc(N3C(=O)C4=C(CCCC4)C3=O)cc12 assay_endpoint="herbicidal effect rating" readout_value=0.0
test_smiles=O=C1C2=C(CCCC2)C(=O)N1c1ccc2sncc2c1 assay_endpoint="herbicidal effect rating" readout_value=0.0
test_smiles=O=C1C2=C(CCCC2)C(=O)N1c1ccc2snc(-c3ccccc3)c2c1 assay_endpoint="herbicidal effect rating" readout_value=0.0
test_smiles=Cn1c(C(F)(F)F)cc(=O)n(-c2ccc3snc(-c4ccccc4)c3c2)c1=O assay_endpoint="herbicidal effect rating" readout_value=9.0

---

- Tested on: ECHCG
- ASSAY_PROCEDURE: Postemergence herbicidal evaluation
- Assay type: in vivo
- ASSAY_CONDITIONS: 0.5000 kg/ha
Reported herbicidal effect rating by item:
ASSAY_ENDPOINT: herbicidal effect rating

test_smiles=Cc1nsc2ccc(-n3c(=O)cc(C(F)(F)F)n(C)c3=O)cc12 assay_endpoint="herbicidal effect rating" readout_value=7.0
test_smiles=Cn1c(C(F)(F)F)cc(=O)n(-c2ccc3snc(-c4ccccc4)c3c2)c1=O assay_endpoint="herbicidal effect rating" readout_value=9.0
test_smiles=O=C1C2=C(CCCC2)C(=O)N1c1ccc2sncc2c1 assay_endpoint="herbicidal effect rating" readout_value=0.0
test_smiles=O=C1C2=C(CCCC2)C(=O)N1c1ccc2snc(-c3ccccc3)c2c1 assay_endpoint="herbicidal effect rating" readout_value=2.0
test_smiles=Cc1nsc2ccc(N3C(=O)C4=C(CCCC4)C3=O)cc12 assay_endpoint="herbicidal effect rating" readout_value=6.0

---

- Tested on: CYPSE Flatsedge
- ASSAY_PROCEDURE: Preemergence weed control, flooded paddy (Table III)
- Format: in vivo, Cyperus serotinus
- Parameters: scale not given here
- ASSAY_CONDITIONS: 0.0313 kg/ha
ASSAY_ENDPOINT: herbicidal effect rating

compound="COC(=O)C(C)Oc1cc(C)ccc1-c1nsc2ccc(-n3c(=O)cc(C(F)(F)F)n(C)c3=O)cc12 (centres unmarked) [Compound 9]" readout_value=2.0
compound="COC(=O)COc1cc(C)ccc1-c1nsc2ccc(-n3c(=O)cc(C(F)(F)F)n(C)c3=O)cc12 [Compound 8]" readout_value=4.0
compound="COC(=O)COc1cc(C)c(C)cc1-c1nsc2ccc(-n3c(=O)cc(C(F)(F)F)n(C)c3=O)cc12 [Compound 12]" readout_value=6.0
compound="COc1cc(C)ccc1-c1nsc2ccc(-n3c(=O)cc(C(F)(F)F)n(C)c3=O)cc12 [Compound 7]" readout_value=7.0
compound="CCc1ccc(-c2nsc3ccc(-n4c(=O)cc(C(F)(F)F)n(C)c4=O)cc23)cc1 [Compound 5]" readout_value=0.0

---

Reported herbicide rating (0-9) by item:
- Tested on: Soybean, Williams, Glycine max
- ASSAY_PROCEDURE: Preemergence herbicidal evaluation, GLXMAW
- Assay type: in vivo, (L.) Merr. cv Williams
- ASSAY_CONDITIONS: 0.2500 kg/ha
ASSAY_ENDPOINT: herbicide rating (0-9)

compound=Cn1c(C(F)(F)F)cc(=O)n(-c2ccc3onc(-c4ccccc4)c3c2)c1=O assay_endpoint="herbicide rating (0-9)" readout_value=9.0
compound="COC(=O)C(C)Oc1ccc(C)cc1-c1nsc2ccc(-n3c(=O)cc(C(F)(F)F)n(C)c3=O)cc12 (stereo not shown)" assay_endpoint="herbicide rating (0-9)" readout_value=5.0
compound=Cc1noc2cc(F)c(-n3c(=O)cc(C(F)(F)F)n(C)c3=O)cc12 assay_endpoint="herbicide rating (0-9)" readout_value=9.0
compound=COc1c(C)cc(C)cc1-c1nsc2ccc(-n3c(=O)cc(C(F)(F)F)n(C)c3=O)cc12 assay_endpoint="herbicide rating (0-9)" readout_value=2.0

---

- Test system: ORYSAT Rice, Tebonnet
- ASSAY_PROCEDURE: Rice tolerance, flooded paddy (Table IV)
- Type: in vivo, Oryza sativa
- Design: scale not given here
- ASSAY_CONDITIONS: 0.1250 kg/ha, crop tolerance
Returns one of Criterion met or Criterion not met; Criterion met when herbicidal effect rating is >= 4.

test_smiles=COc1c(-c2nsc3ccc(-n4c(=O)cc(C(F)(F)F)n(C)c4=O)cc23)ccc(C)c1C experimental_target="ORYSAT Rice, Tebonnet" class_name="Criterion met"
test_smiles=C#CCOC(=O)C(C)(C)Oc1ccc(C)cc1-c1nsc2ccc(-n3c(=O)cc(C(F)(F)F)n(C)c3=O)cc12 experimental_target="ORYSAT Rice, Tebonnet" class_name="Criterion not met"
test_smiles=COc1cc(C)ccc1-c1nsc2ccc(-n3c(=O)cc(C(F)(F)F)n(C)c3=O)cc12 experimental_target="ORYSAT Rice, Tebonnet" class_name="Criterion met"
test_smiles=Cc1nsc2ccc(-n3c(=O)cc(C(F)(F)F)n(C)c3=O)cc12 experimental_target="ORYSAT Rice, Tebonnet" class_name="Criterion met"
test_smiles=COc1ccc(I)cc1-c1nsc2ccc(-n3c(=O)cc(C(F)(F)F)n(C)c3=O)cc12 experimental_target="ORYSAT Rice, Tebonnet" class_name="Criterion not met"
test_smiles=COc1cc2c(cc1-c1nsc3ccc(-n4c(=O)cc(C(F)(F)F)n(C)c4=O)cc13)CCC2 experimental_target="ORYSAT Rice, Tebonnet" class_name="Criterion met"

---

- Test system: Soybean, Williams, Glycine max
- ASSAY_PROCEDURE: Preemergence herbicidal evaluation, GLXMAW
- Format: in vivo, (L.) Merr. cv Williams
- ASSAY_CONDITIONS: 0.2500 kg/ha
Reported herbicide rating (0-9) by item:
ASSAY_ENDPOINT: herbicide rating (0-9)

compound="COC(=O)C(C)Oc1c(C)cc(C)cc1-c1nsc2ccc(-n3c(=O)cc(C(F)(F)F)n(C)c3=O)cc12 (stereo not shown) [Compound 27]" assay_endpoint="herbicide rating (0-9)" readout_value=9.0
compound="COC(=O)COc1noc2ccc(-n3c(=O)cc(C(F)(F)F)n(C)c3=O)cc12 [Compound 22]" assay_endpoint="herbicide rating (0-9)" readout_value=2.0
compound="COC(=O)COc1ccc(C)cc1-c1nsc2ccc(-n3c(=O)cc(C(F)(F)F)n(C)c3=O)cc12 [Compound 2]" assay_endpoint="herbicide rating (0-9)" readout_value=8.5
compound="COc1ccc(C)cc1-c1nsc2ccc(-n3c(=O)cc(C)n(C)c3=O)cc12 [Compound 24]" assay_endpoint="herbicide rating (0-9)" readout_value=1.0

---

- Test system: ECHCG
- ASSAY_PROCEDURE: Preemergence herbicidal evaluation
- Type: in vivo
- Parameters: scale not given here
- ASSAY_CONDITIONS: 0.0313-0.0320 kg/ha
- Procedure: The preemergence and postemergence herbicidal properties of certain compounds of the present invention are compared with certain compounds disclosed in U.S. Pat. Nos. 5,484,763 and 5,523,278. The evaluations are performed as described in Examples 185 and 186. Data in Tables V and VI are reported by the compound number given in Example 185 for the compounds of this invention or by comparative compound letter for the compounds disclosed in U.S. Pat. Nos. 5,484,763 and 5,523,278.
Reported herbicidal effect rating by item:
ASSAY_ENDPOINT: herbicidal effect rating

test_smiles=Cc1nsc2ccc(N3C(=O)C4=C(CCCC4)C3=O)cc12 experimental_target=ECHCG assay_endpoint="herbicidal effect rating" readout_value=0.0
test_smiles=Cn1c(C(F)(F)F)cc(=O)n(-c2ccc3snc(-c4ccccc4)c3c2)c1=O experimental_target=ECHCG assay_endpoint="herbicidal effect rating" readout_value=9.0
test_smiles=O=C1C2=C(CCCC2)C(=O)N1c1ccc2sncc2c1 experimental_target=ECHCG assay_endpoint="herbicidal effect rating" readout_value=0.0
test_smiles=CN(C)C(=O)c1nsc2ccc(-n3c(=O)cc(C(F)(F)F)n(C)c3=O)cc12 experimental_target=ECHCG assay_endpoint="herbicidal effect rating" readout_value=1.0
test_smiles=O=C1C2=C(CCCC2)C(=O)N1c1ccc2snc(-c3ccccc3)c2c1 experimental_target=ECHCG assay_endpoint="herbicidal effect rating" readout_value=0.0

---

Reported herbicidal effect rating by item:
- Tested on: ECHORC Watergrass (Calif.)
- ASSAY_PROCEDURE: Preemergence weed control, flooded paddy (Table III)
- Assay type: in vivo, Echinochloa oryzoides
- Parameters: scale not given here
- ASSAY_CONDITIONS: 0.0625 kg/ha
ASSAY_ENDPOINT: herbicidal effect rating

compound="COC(=O)C(C)Oc1cc(C)c(C)cc1-c1nsc2ccc(-n3c(=O)cc(C(F)(F)F)n(C)c3=O)cc12 (stereo not drawn) [Compound 13]" readout_value=9.0
compound="COC(=O)C(C)Oc1ccc(C)cc1-c1nsc2ccc(-n3c(=O)cc(C(F)(F)F)n(C)c3=O)cc12 (stereo not drawn) [Compound 3]" readout_value=9.0
compound="COC(=O)COc1cc(C)ccc1-c1nsc2ccc(-n3c(=O)cc(C(F)(F)F)n(C)c3=O)cc12 [Compound 8]" readout_value=9.0
compound="CCc1ccc(-c2nsc3ccc(-n4c(=O)cc(C(F)(F)F)n(C)c4=O)cc23)cc1 [Compound 5]" readout_value=9.0
compound="Cn1c(C(F)(F)F)cc(=O)n(-c2ccc3snc(-c4ccccc4)c3c2)c1=O [Compound 4]" readout_value=9.0
compound="Cc1cc(O)c(-c2nsc3ccc(-n4c(=O)cc(C(F)(F)F)n(C)c4=O)cc23)cc1C [Compound 11]" readout_value=7.0
compound="COC(=O)COc1ccc(C)cc1-c1nsc2ccc(-n3c(=O)cc(C(F)(F)F)n(C)c3=O)cc12 [Compound 2]" readout_value=9.0
compound="COc1cc(C)ccc1-c1nsc2ccc(-n3c(=O)cc(C(F)(F)F)n(C)c3=O)cc12 [Compound 7]" readout_value=9.0
compound="COC(=O)C(C)Oc1cc(C)ccc1-c1nsc2ccc(-n3c(=O)cc(C(F)(F)F)n(C)c3=O)cc12 (stereo not drawn) [Compound 9]" readout_value=9.0
compound="COc1ccc(C)cc1-c1nsc2ccc(-n3c(=O)cc(C(F)(F)F)n(C)c3=O)cc12 [Compound 1]" readout_value=9.0
compound="Cc1nsc2ccc(-n3c(=O)cc(C(F)(F)F)n(C)c3=O)cc12 [Compound 6]" readout_value=6.0
compound="COC(=O)COc1cc(C)c(C)cc1-c1nsc2ccc(-n3c(=O)cc(C(F)(F)F)n(C)c3=O)cc12 [Compound 12]" readout_value=9.0
